Each entry below carries its reported pEC50.
# measured-on: T1, human CCR8 (human, UniProt P51685 1-355)
# T1 construct: whole, on cells; In the β-arrestin assay CCR8 is fused to the ProLink (PK) tag; also called hCCR8; CHO-K1-human CCR8
# test-method-notes: FACS on CHO-K1-human CCR8 cells
Keep in mind that pEC50 stands for -log10 of concentration in molar terms.

{"binder": "234G9C12 (antibody, V domains shown, Murine hybridoma antibody; also called 234G4C12) VH: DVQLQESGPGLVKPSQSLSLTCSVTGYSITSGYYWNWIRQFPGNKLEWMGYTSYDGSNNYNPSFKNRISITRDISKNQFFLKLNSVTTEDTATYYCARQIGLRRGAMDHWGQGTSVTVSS VL: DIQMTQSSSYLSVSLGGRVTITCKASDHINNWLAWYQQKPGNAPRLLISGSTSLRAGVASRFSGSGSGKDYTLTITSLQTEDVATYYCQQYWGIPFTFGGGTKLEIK", "observed-property": "pEC50", "recorded-measurement": 7.73}

# ---- query binder ----
Lab note: 262C2G7 (antibody, V domains shown, Murine hybridoma antibody) VH: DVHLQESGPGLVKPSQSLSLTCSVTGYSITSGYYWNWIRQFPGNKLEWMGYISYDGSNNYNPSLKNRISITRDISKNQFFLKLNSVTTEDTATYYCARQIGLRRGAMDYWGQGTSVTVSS VL: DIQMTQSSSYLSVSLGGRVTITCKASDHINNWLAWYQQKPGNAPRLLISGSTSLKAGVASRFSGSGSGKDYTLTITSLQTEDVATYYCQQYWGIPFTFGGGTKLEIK gave pEC50 of 6.90
